- Tested system: BIKE (amino acids S38-E345) (K320A, K321A) (Homo sapiens, UniProt Q9NSY1, K320A/K321A)
- Construct: against BIKE (amino acids S38-E345) (K320A, K321A); 6His (N, cleaved yes)
- Sequence (Q9NSY1 38-345 K320A/K321A): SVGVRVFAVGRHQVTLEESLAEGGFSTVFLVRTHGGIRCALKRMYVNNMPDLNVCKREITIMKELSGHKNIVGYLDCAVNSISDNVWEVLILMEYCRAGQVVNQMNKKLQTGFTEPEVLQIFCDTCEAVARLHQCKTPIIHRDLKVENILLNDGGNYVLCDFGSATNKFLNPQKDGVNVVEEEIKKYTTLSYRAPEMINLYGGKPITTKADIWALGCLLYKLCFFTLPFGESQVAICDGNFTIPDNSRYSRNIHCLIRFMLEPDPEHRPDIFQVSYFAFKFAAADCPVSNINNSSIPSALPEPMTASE
- Assay comment: BIKE pSENs assay
- Assay type: biochemical
- Particulars: class symbols; read-out: BIKE pSENs: IC50
Reported property: IC50

Sample answers from the record:
> print(dat)
                                   compound   readout.value
1  CN1C[C@@H](OC(=O)N2CCN(c3ccn4ncc(-c5cccnc5OC5CCOC5)c4n3)CC2)CC1=O (stereo partly shown) [Compound I-119]  501 to 1500 nM
2  CC(C)(C)OC(=O)N1CCN(c2ccn3ncc(Cl)c3n2)CC1 [Compound I-100]       > 1500 nM
3  CN1C[C@@H](OC(=O)N2CCN(c3ccn4nccc4n3)CC2)CC1=O [Compound I-97]       > 1500 nM
4  CNCCN1C[C@@H](OC(=O)N2CCN(c3ccn4ncc(-c5cccnc5OC5CC5)c4n3)CC2)CC1=O [Compound I-36]    51 to 150 nM
5  CC1(OC(=O)N2CCN(c3ccn4ncc(-c5cccnc5OC5COC5)c4n3)CC2)COC1 [Compound I-18]  501 to 1500 nM

Query block: Specify the recorded IC50 for C#CC1(OC(=O)N2CCN(c3ccn4ncc(-c5cccnc5OC5CC5)c4n3)CC2)CCNC1 (stereo not shown) [Compound I-16-7] , system: BIKE (amino acids S38-E345) (K320A, K321A) (Homo sapiens, UniProt Q9NSY1, K320A/K321A).
Result block: 51 to 150 nM

Query block: Recall the reported IC50 of CN(CCNc1ccn2ncc(-c3cccnc3OC3CN(C(=O)OC(C)(C)C)C3)c2n1)C(=O)OC(C)(C)C [Compound I-62] on BIKE (amino acids S38-E345) (K320A, K321A) (Homo sapiens, UniProt Q9NSY1, K320A/K321A) and write it down.
Result block: 151 to 500 nM

Query block: Report IC50 on BIKE (amino acids S38-E345) (K320A, K321A) (Homo sapiens, UniProt Q9NSY1, K320A/K321A) for this entry: O=C1C[C@H](OC(=O)N2CCN(c3ccn4ncc(-c5cccnc5OC5CC5)c4n3)CC2)CN1 [Compound I-11]
Result block: 151 to 500 nM

###

- Tested system: AAK1 (amino acids T27-A365) (Homo sapiens)
- Construct: against AAK1 (amino acids T27-A365); 6His (N, cleaved yes)
- Sequence (Q2M2I8 27-365): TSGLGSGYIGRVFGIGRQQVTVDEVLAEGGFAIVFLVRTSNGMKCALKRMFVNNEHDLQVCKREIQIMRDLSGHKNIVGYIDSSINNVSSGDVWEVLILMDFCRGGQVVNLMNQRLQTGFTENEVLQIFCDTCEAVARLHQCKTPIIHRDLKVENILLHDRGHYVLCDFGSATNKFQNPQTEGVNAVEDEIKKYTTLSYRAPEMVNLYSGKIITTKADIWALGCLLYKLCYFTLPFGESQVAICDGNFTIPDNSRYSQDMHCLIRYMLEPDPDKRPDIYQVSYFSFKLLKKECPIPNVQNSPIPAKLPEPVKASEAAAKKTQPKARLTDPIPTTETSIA
- Assay comment: AAK1 pSENs assay
- Assay type: biochemical
- Particulars: class symbols; read-out: AAK1 pSENs: EIC50
pIC50: −log10 of the molar value.
Reported property: pIC50

> print(dat)
                                   compound  readout.value
1  CC(C)Oc1ncccc1-c1cnn2ccc(N3CCN(C(=O)O[C@]4(C)CCNC4)CC3)nc12 [Compound I-22]   7.30 to 9.00
2  C[C@@]1(OC(=O)N[C@H]2CCN(c3ccn4ncc(-c5cccnc5OC5CC5)c4n3)C2)CCNC1 [Compound I-57]   6.82 to 7.29

Query block: Answer with pIC50 of COc1ncccc1-c1cnn2ccc(NCCN(C)C(=O)O[C@H]3CO[C@H]4OCC[C@H]43)nc12 [Compound I-70] measured for AAK1 (amino acids T27-A365) (Homo sapiens).
Result block: 7.30 to 9.00

Query block: Specify pIC50 for O=C(O[C@H]1CO[C@H]2OCC[C@H]21)N1CCN(c2ccn3ncc(-c4ccncn4)c3n2)CC1 [Compound I-67] , system AAK1 (amino acids T27-A365) (Homo sapiens).
Result block: 5.82 to 6.30

Query block: Recall the reported pIC50 of CC(C)Oc1ncccc1-c1cnn2ccc(N3CCN(C(=O)O[C@@]4(C)CCNC4)CC3)nc12 [Compound I-21] when tested on AAK1 (amino acids T27-A365) (Homo sapiens).
Result block: 6.82 to 7.29

Query block: # assay system AAK1 (amino acids T27-A365) (Homo sapiens): give pIC50 of Oc1ncccc1-c1cnn2ccc(N3CCNCC3)nc12 [Compound I-106]
Result block: 5.82 to 6.30

Query block: Tell me pIC50 of COc1cn2ncc(-c3cccnc3OC3CC3)c2nc1N1CCN(C(=O)O[C@H]2CC(=O)N(C)C2)CC1 [Compound I-110-9] when tested on AAK1 (amino acids T27-A365) (Homo sapiens).
Result block: < 5.82

Query block: Specify pIC50 for NC(=O)[C@@H]1CN(c2ccn3ncc(-c4cccnc4OC4CC4)c3n2)CCN1C(=O)O[C@@H]1CNC(=O)C1 [Compound I-41-6] , system AAK1 (amino acids T27-A365) (Homo sapiens).
Result block: 6.30 to 6.82

Query block: Fill in pIC50 for O=C1C[C@H](OC(=O)N2CCN(c3ccn4ncc(-c5cccnc5NC5CC5)c4n3)CC2)CN1 [Compound I-45] tested with AAK1 (amino acids T27-A365) (Homo sapiens).
Result block: < 5.82

Query block: Give pIC50; test system AAK1 (amino acids T27-A365) (Homo sapiens); compound Cc1nn2ccc(N3CCN(C(=O)O[C@H]4CC(=O)N(C)C4)CC3)nc2c1-c1cccnc1OC1CC1 [Compound I-108]
Result block: < 5.82

Query block: Identify measured pIC50 obtained with AAK1 (amino acids T27-A365) (Homo sapiens) for CC1(OC(=O)N2CCN(c3ccn4ncc(-c5cccnc5OC5COC5)c4n3)CC2)COC1 [Compound I-18] .
Result block: 7.30 to 9.00

Query block: Lab note: AAK1 (amino acids T27-A365) (Homo sapiens) assay, enter pIC50 for CN1CC[C@@](C)(OC(=O)N2CCN(c3ccn4ncc(-c5cccnc5OC5CC5)c4n3)CC2)C1 [Compound I-50] here
Result block: 7.30 to 9.00

Query block: For AAK1 (amino acids T27-A365) (Homo sapiens), give the measured pIC50 of the entry CN1C[C@@H](OC(=O)N2CCN(c3nc4c(-c5cccnc5OC5CCCCC5)cnn4cc3F)CC2)CC1=O [Compound I-123]
Result block: 6.30 to 6.82

Query block: Report value only: pIC50, AAK1 (amino acids T27-A365) (Homo sapiens), O=C1C[C@H](OC(=O)N2CCN(c3ccn4ncc(-c5cccnc5OC5COC5)c4n3)CC2)CN1 [Compound I-25]
Result block: 7.30 to 9.00

Query block: Report measured pIC50 on AAK1 (amino acids T27-A365) (Homo sapiens); entry: CNCCN1C[C@@H](OC(=O)N2CCN(c3ccn4ncc(-c5cccnc5OC5CC5)c4n3)CC2)CC1=O [Compound I-36]
Result block: 7.30 to 9.00

Query block: Check AAK1 (amino acids T27-A365) (Homo sapiens) data and give pIC50 for CC(C)(C)OC(=O)N1CC(Nc2ncccc2-c2cnn3ccc(N4CCN(C(=O)O[C@@H]5CNC(=O)C5)CC4)nc23)C1 [Compound I-48] .
Result block: 5.82 to 6.30

Query block: # return pIC50 for O=C1C[C@H](OC(=O)N2CCN(c3ccn4ncc(-c5cccnc5OC5CC5)c4n3)CC2)CN1CCO [Compound I-38] , test system: AAK1 (amino acids T27-A365) (Homo sapiens)
Result block: 7.30 to 9.00

###

- Tested system: BIKE (amino acids S38-E345) (K320A, K321A) (Homo sapiens, UniProt Q9NSY1, K320A/K321A)
- Construct: against BIKE (amino acids S38-E345) (K320A, K321A); 6His (N, cleaved yes)
- Assay comment: BIKE pSENs assay
- Type: biochemical
- Particulars: class symbols; read-out: BIKE pSENs: IC50
pIC50: −log10 of the molar value.
Reported property: pIC50

Record excerpt, results attached:
> print(dat)
                  compound.structure.string  readout.value
1  CC(C)(C)OC(=O)NCCNc1ccc2ncc(-c3cccnc3OC3CC3)n2n1   6.82 to 7.29
2  CN1C[C@@H](OC(=O)N2CCN(c3nc4c(-c5cccnc5OC5CCOCC5)cnn4cc3F)CC2)CC1=O   6.30 to 6.82

Query block: Output measured pIC50 for this item: O=C1C[C@H](OC(=O)N2CCN(c3ccn4ncc(-c5cccnc5OC5CC5)c4n3)CC2)CN1CCOCc1ccccc1
Result block: 5.82 to 6.30

Query block: Recall and state the measured pIC50 for CC1(OC(=O)N2CCN(c3ccn4ncc(-c5cccc(C(N)=O)c5)c4n3)CC2)COC1 .
Result block: 5.82 to 6.30

Query block: Check the records and state pIC50 for C[C@@]1(OC(=O)N2CCN(c3ccn4ncc(-c5cccnc5OC5CC5)c4n3)CC2)CCNC1
Result block: 6.30 to 6.82

Query block: Name the recorded pIC50 of the compound listed here: O=C1C[C@H](OC(=O)N2CCN(c3ccn4ncc(-c5cccnc5NC5CC5)c4n3)CC2)CN1
Result block: < 5.82

Query block: Complete the entry with pIC50 for CC1(OC(=O)N2CCN(c3ccn4ncc(-c5cccnc5OC5CC5)c4n3)CC2)COC1
Result block: 6.30 to 6.82

// provenance: patent US20250122207A1
